Source: patent US20050260150A1

Assay: Spreading characteristics on WHATMAN filter paper (50 microliters)
Type: physicochemical
Details: 3 minutes; 50 microliters on filter paper
endpoint: Spreadibility (3 minutes) (cm)

1) CCC(CC)C(=O)OCC(C)(C)COC(=O)C(CC)CC [ND2EB, neopentyl glycol di-2-ethylbutyrate] : 3.43
2) CCCCCC(=O)OCCOCCOC(=O)CCCCC [DEGDH, diethylene glycol dihexanoate] : 3.43
3) C[Si]1(C)O[Si](C)(C)O[Si](C)(C)O[Si](C)(C)O[Si](C)(C)O1 [Example D5, reference compound] : 3.40
4) CC(C)C(=O)OCC(C)(C)COC(=O)C(C)C [NDI] : 3.63
5) C[Si]1(C)O[Si](C)(C)O[Si](C)(C)O[Si](C)(C)O1 [Example D4, reference compound] : 3.50
6) CCCCC(=O)OCC(C)(C)COC(=O)CCCC [NDP, neopentyl glycol dipentanoate] : 3.48

###

Assay: Kinematic viscosity at 25° C. (ASTM D-445-97)
Type: physicochemical
endpoint: Viscosity at 25° C. (cSt)

Consider the following illustrative entries.
1. C[Si]1(C)O[Si](C)(C)O[Si](C)(C)O[Si](C)(C)O[Si](C)(C)O1 [Example D5, reference compound] : 4.0
2. CCC(CC)C(=O)OCC(C)(C)COC(=O)C(CC)CC [ND2EB, neopentyl glycol di-2-ethylbutyrate] : 7.6
3. CC(C)C(=O)OCC(C)(C)COC(=O)C(C)C : 3.5

A: CCCCCC(=O)OCCOCCOC(=O)CCCCC [DEGDH, diethylene glycol dihexanoate]
B: CCCCC(=O)OCC(C)(C)COC(=O)CCCC [NDP, neopentyl glycol dipentanoate]
Q: Which has the higher Viscosity at 25° C., A or B ? Kindly state the label of the option you pick.
A: A

###

Experiment: Spreading characteristics on WHATMAN filter paper (50 microliters)
Type: physicochemical
Settings: 1 minute; 50 microliters on filter paper
endpoint: Spreadibility (1 minute) (cm)

1) CC(C)C(=O)OCC(C)(C)COC(=O)C(C)C [NDI] : 3.18
2) CCCCC(=O)OCC(C)(C)COC(=O)CCCC [NDP, neopentyl glycol dipentanoate] : 3.08
3) CCCCCC(=O)OCCOCCOC(=O)CCCCC [DEGDH, diethylene glycol dihexanoate] : 2.98
4) CCC(CC)C(=O)OCC(C)(C)COC(=O)C(CC)CC [ND2EB, neopentyl glycol di-2-ethylbutyrate] : 3.00
5) C[Si]1(C)O[Si](C)(C)O[Si](C)(C)O[Si](C)(C)O1 [Example D4, reference compound] : 3.10
6) C[Si]1(C)O[Si](C)(C)O[Si](C)(C)O[Si](C)(C)O[Si](C)(C)O1 [Example D5, reference compound] : 2.90

###

Assay: Spreading characteristics on WHATMAN filter paper (50 microliters)
Format: physicochemical
Details: 5 minutes; 50 microliters on filter paper
endpoint: Spreadibility (5 minutes) (cm)

1. CCC(CC)C(=O)OCC(C)(C)COC(=O)C(CC)CC [ND2EB, neopentyl glycol di-2-ethylbutyrate] : 3.63
2. CCCCC(=O)OCC(C)(C)COC(=O)CCCC [NDP, neopentyl glycol dipentanoate] : 3.85
3. CCCCCC(=O)OCCOCCOC(=O)CCCCC [DEGDH, diethylene glycol dihexanoate] : 3.68
4. CC(C)C(=O)OCC(C)(C)COC(=O)C(C)C : 3.88
5. C[Si]1(C)O[Si](C)(C)O[Si](C)(C)O[Si](C)(C)O[Si](C)(C)O1 [Example D5, reference compound] : 3.60
6. C[Si]1(C)O[Si](C)(C)O[Si](C)(C)O[Si](C)(C)O1 [Example D4, reference compound] : 3.60
